System: microorganisms
procedure.details: Morphology, biofilm and growth disruption by peptides (Table 5)
Assay type: cell-based
Parameters: key: A: Peptide aggregates; B: Less hyphal formation; Clumps; Diffuse clumps and small polyps; F: Diffuse growth; H: Thin; I: Growth inhibition; Microcolony formation; Rippled; Small polyps; Thick; W: Halo formation on top, microlonies on bottom
experimental.parameters: S. pneumoniae
Excerpt: In certain embodiments peptides that induce alterations in phenotype or other biological activities can also be used as antimicrobial effector moieties.
Ends that are not written are not given here.
result.type: Organism, effect (morphology, biofilm and growth disruption)

Reference set, count: 4
* PF-430 (AVVCGYLAYTATS; Peptide with targeting and/or antimicrobial activity) | S. pneumoniae (M)
* PF-603 (IDKLKKMNLQKLSYEVRISQDGKSIYARIK; Peptide with targeting and/or antimicrobial activity) | S. pneumoniae (C)
* PF-513 (SNGVGLGVGIGSGIRF-NH2) | S. pneumoniae (M)
* PF-425 (MMELVLKTIIGPIVVGVVLRIVDKWLNKDK; Peptide with targeting and/or antimicrobial activity) | S. pneumoniae (D)

Turning now to a further substance:
Exercise: Name the recorded Organism, effect (morphology, biofilm and growth disruption) for PF-468 (EDNKDKKDKKDK; Peptide with targeting and/or antimicrobial activity) .
Solution: S. pneumoniae (H)
